Experiment: Cytotoxicity against Sprague-Dawley rat L6 cells assessed as cell viability at 10 uM after 12 hrs by SRB assay (reference value: 100 +/- 1.8%)
Format: cell-based
Conditions: read-out: Activity
readout_kind: viability at 12 h, 10 µM (%)
Give bare numbers, in %.

Find the recorded viability at 12 h, 10 µM belonging to CCCCc1cc2c(s1)CC1c3cc4c(cc3CCN1C2)OCO4 (centres undefined) and report it.
98.8

Give measured viability at 12 h, 10 µM for every item shown.
1. C=CCOc1ccc(Cc2cc3c(s2)CCN2Cc4c(OC)ccc(OC)c4CC32)cc1 (centres undefined)
2. COc1ccc(OC)c2c1CC1c3cc(Cc4ccccn4)sc3CCN1C2 (centres undefined)
3. COc1ccc(OC)c2c1CC1c3cc(Cc4ccc(N5CCCCC5)cc4)sc3CCN1C2 (centres undefined)
4. COc1ccc(OC)c2c1CC1c3cc(Cc4ccc(C(F)(F)F)cc4)sc3CCN1C2 (centres undefined)
5. COc1ccc(OC)c2c1CC1c3cc(Cc4ccncc4)sc3CCN1C2 (centres undefined)
6. CCc1cc2c(s1)CC1c3cc4c(cc3CCN1C2)OCO4 (centres undefined)

1. 102
2. 103
3. 101
4. 101
5. 110
6. 102

Give measured viability at 12 h, 10 µM for every item shown.
1. COc1ccc(OC)c2c1CC1c3cc(Cc4ccc(S(C)(=O)=O)cc4)sc3CCN1C2 (centres undefined)
2. COc1ccc(OC)c2c1CC1c3cc(Cc4ccc(C)cc4)sc3CCN1C2 (centres undefined)
3. COc1ccc(OC)c2c1CC1c3cc(Cc4ccc(N(C)C)cc4)sc3CCN1C2 (centres undefined)
4. COc1ccc(OC)c2c1CC1c3cc(Cc4nccs4)sc3CCN1C2 (centres undefined)

102
106
108
103

Give measured viability at 12 h, 10 µM for every item shown.
1. COc1ccc(OC)c2c1CC1c3cc(Cc4cccc(C)c4)sc3CCN1C2 (centres undefined)
2. COc1ccc(OC)c2c1CC1c3cc(Cc4ccc(F)cc4)sc3CCN1C2 (centres undefined)
3. COc1ccc(OC)c2c1CC1c3cc(Cc4cc(OC)c(OC)c(OC)c4)sc3CCN1C2 (centres undefined)
4. COc1ccc(OC)c2c1CC1c3cc(Cc4ccc(N5CCN(C)CC5)cc4)sc3CCN1C2 (centres undefined)
5. c1cc2c(s1)CC1c3cc4c(cc3CCN1C2)OCO4 (centres undefined)
6. COc1ccc(OC)c2c1CC1c3cc(Cc4ccc(Br)cc4)sc3CCN1C2 (centres undefined)
7. COc1ccc(OC)c2c1CC1c3cc(Cc4ccc(NC(C)=O)cc4)sc3CCN1C2 (centres undefined)

1: 99; 2: 98.2; 3: 104; 4: 104; 5: 99.7; 6: 105; 7: 97.2

Find the recorded viability at 12 h, 10 µM belonging to c1ccc(Cc2cc3c(s2)CC2c4cc5c(cc4CCN2C3)OCO5)cc1 (centres undefined) and report it.
101
